System: UACC-62 melanoma
Assay Summary: NCI-60 one-dose screen, 48 h
Cond: 10 µM unless noted
The panel holds about 83,000 compounds, 20% with a hit somewhere; the sample as a whole holds those more often. The source made the active and inactive calls. Rule for the calls: active = growth percent below 10; inactive = the rest.
Possible outcomes: active, inactive

{"Molecule": "CC1(C)OC2[C@@H](CNC(=O)NC(=O)NC(=O)CI)O[C@@H](n3cnc4c(NC(=O)Nc5ccccc5)ncnc43)[C@H]2O1 (stereo partly drawn)", "Assigned Category": "inactive"}
{"Molecule": "O=[N+]([O-])c1cccc(N=NNc2cccc([N+](=O)[O-])c2)c1", "Assigned Category": "inactive"}
{"Molecule": "O=c1cc(-c2ccccc2)oc2c(O)c(O)ccc12", "Assigned Category": "inactive"}
{"Molecule": "COc1ccc(OC)c([N+](=O)[O-])c1C(=O)CNC(C)=O", "Assigned Category": "inactive"}
{"Molecule": "Cc1ccc(Cn2c(O)c(N=NC(=O)c3ccc(S(N)(=O)=O)cc3)c3ccccc32)cc1", "Assigned Category": "inactive"}
{"Molecule": "O=C(NCCCNC(=O)OCc1ccc2c(Br)cc(Br)c(O)c2n1)OCc1ccc2c(Br)cc(Br)c(O)c2n1", "Assigned Category": "active"}
{"Molecule": "COC(=O)[C@]12CCC(C)(C)C[C@H]1C1=CC[C@@H]3[C@@]4(C)C/C(=C/c5cccnc5)C(=O)C(C)(C)[C@@H]4CC[C@@]3(C)[C@]1(C)CC2", "Assigned Category": "active"}
{"Molecule": "c1coc2occoc=2o1", "Assigned Category": "inactive"}
